TESTED_TARGET: T1, dimeric human PRLR (hPRLR.mFc; SEQ ID NO:402) (Homo sapiens, UniProt P16471)
T1 construct: dimeric (hPRLR.mFc)
T1 sequence (P16471 with tags, fused parts or gaps): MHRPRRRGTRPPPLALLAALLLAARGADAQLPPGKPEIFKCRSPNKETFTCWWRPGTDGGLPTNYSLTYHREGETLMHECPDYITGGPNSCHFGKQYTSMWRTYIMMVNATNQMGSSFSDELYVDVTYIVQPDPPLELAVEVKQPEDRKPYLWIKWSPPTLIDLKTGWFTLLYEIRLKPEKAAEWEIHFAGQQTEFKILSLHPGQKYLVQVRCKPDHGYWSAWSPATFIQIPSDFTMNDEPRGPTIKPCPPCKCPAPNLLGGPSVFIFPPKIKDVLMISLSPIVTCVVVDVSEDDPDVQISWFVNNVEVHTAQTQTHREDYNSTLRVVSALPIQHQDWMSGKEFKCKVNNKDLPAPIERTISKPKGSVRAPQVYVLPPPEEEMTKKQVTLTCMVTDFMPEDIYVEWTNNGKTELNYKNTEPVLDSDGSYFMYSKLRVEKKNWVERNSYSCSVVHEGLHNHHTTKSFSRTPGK
MEASUREMENT_DESCRIPTION: Surface plasmon resonance (Biacore T200), antibody-capture format
Format: binding
CONDITION_SET: 25° C., analyte hPRLR.mFc
ENDPOINT: kd
Mention the unit after the number when you answer.

{"columns": ["MOLECULE", "RESULT"],
 "data": [
  ["H1H6967N: anti-PRLR antibody, human IgG1 Fc form of H2M6967N of Table 1; HCVR/LCVR SEQ ID NOs 354/362 (antibody, V domains shown, human IgG1 Fc) VH: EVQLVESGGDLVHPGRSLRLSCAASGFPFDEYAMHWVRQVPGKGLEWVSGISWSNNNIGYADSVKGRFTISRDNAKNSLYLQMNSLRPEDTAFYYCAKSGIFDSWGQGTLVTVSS VL: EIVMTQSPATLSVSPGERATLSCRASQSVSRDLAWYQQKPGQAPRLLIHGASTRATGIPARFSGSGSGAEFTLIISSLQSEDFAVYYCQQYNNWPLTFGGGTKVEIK", "4.45e-05 s⁻¹"]
]}

Hi team, please reply with kd for each item in this list.
1. H1H6960N: anti-PRLR antibody, human IgG1 Fc form of H2M6960N of Table 1; HCVR/LCVR SEQ ID NOs 322/330 (antibody, V domains shown, human IgG1 Fc) VH: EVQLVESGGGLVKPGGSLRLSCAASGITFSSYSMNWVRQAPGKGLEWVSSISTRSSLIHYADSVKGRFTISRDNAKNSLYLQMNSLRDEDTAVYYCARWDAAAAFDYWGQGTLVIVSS VL: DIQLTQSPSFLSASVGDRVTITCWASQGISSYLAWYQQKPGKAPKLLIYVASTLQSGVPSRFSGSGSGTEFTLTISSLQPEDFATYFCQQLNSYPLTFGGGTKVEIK
2. H1H6765P: fully human anti-PRLR antibody, human IgG1 Fc; HCVR/LCVR SEQ ID NOs 18/26 (antibody, V domains shown) VH: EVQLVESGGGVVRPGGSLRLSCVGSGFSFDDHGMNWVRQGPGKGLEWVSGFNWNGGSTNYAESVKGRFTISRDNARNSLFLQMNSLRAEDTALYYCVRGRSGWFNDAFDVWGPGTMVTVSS VL: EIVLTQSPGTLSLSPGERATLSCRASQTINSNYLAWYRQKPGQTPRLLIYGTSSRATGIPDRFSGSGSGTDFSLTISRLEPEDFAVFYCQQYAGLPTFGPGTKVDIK
3. H1H6792P: fully human anti-PRLR antibody, human IgG1 Fc; HCVR/LCVR SEQ ID NOs 130/138 (antibody, V domains shown) VH: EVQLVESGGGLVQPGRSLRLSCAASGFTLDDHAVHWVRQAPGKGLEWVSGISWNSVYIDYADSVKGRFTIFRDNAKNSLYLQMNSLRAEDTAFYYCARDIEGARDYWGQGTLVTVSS VL: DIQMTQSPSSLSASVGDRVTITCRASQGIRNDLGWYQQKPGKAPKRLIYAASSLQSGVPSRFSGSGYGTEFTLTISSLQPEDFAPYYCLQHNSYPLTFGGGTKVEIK

OUT:
1. 3.56e-05 s⁻¹
2. 3.41e-05 s⁻¹
3. 9.48e-05 s⁻¹

Hey, just so you know, these numbers are from patent US10925971B2.
